Here's what we have: GI50 numbers for HCT-15.

Please review the entries below; each comes with its answer.
Under HCT-15: report GI50 of C=C(N=[N+]=[N-])c1cn(C2CC(O)C(CO)O2)c(=O)[nH]c1=O (stereo unspecified) .
> 100 µM

Report its GI50 with HCT-15 as the test system: O/N=C1/C2CC3CC1(c1ccccc1)CC(/C3=N/O)/C2=N\O (stereo unspecified)
> 100 µM

# return GI50 of `O=C(N/N=C(COc1ccc(Cl)cc1)\N=C\c1ccncc1)c1ccncc1` (system: HCT-15)
> 100 µM

Give GI50 only, for `N/N=C(\N)SCc1ccc(N=C=S)cc1` , using HCT-15 data.
> 100 µM

Next:
For HCT-15, give GI50 of the listed molecule: `O=C(C/N=C(\CN(c1ccccc1)c1ccccc1)Oc1ccc(Cl)cc1Cl)n1ccnc1`
> 100 µM

Answer with GI50 of `C[C@@H]1Nc2cc(NC(=O)OCCF)nc(N)c2N=C1c1ccccc1` measured for HCT-15.
< 0.0001 µM

###

# System: NCI/ADR-RES
# assay-method-text: NCI tumour cell line growth inhibition, 48 h
Calls of active or inactive are those of the source. Rule as the data show it: active = GI50 up to about 1.1 µM and inactive = higher.
Permitted responses: TRUE (active), FALSE (inactive)

Called result for `COc1cc(O)c(C(=O)/C=C/c2ccccc2)c(OC)c1`
FALSE

Could you please tell me the result logged for O=C(NC1CCCCC1NC(c1ccccc1)(c1ccccc1)c1ccccc1)C(=O)NC1CCCCC1NC(c1ccccc1)(c1ccccc1)c1ccccc1 (stereo unspecified) in this assay?
FALSE

Per the records of this test, what outcome belongs to `S=C(N/N=C/c1ccccn1)N1CC2CCC(CC2)C1` ?
TRUE

Query: recorded result category for CC1(C(O)c2ccccc2)CN(C(C)(C)C)C(=O)/C1=C\Sc1ccccc1 (stereo unspecified) in this test
FALSE

Test call for this compound, please: Nc1ncnc2c1ncn2C1CCC(CO)O1 (stereo unspecified)
FALSE

# fetch the recorded call for `O=C(CCc1ccc(O)cc1)NCCc1cccc(OCc2ccccc2)c1` here
FALSE

Which result was noted for this compound in the test: `O=C1NCC2(CCN(CCCC3(c4ccc(F)cc4)OCCO3)CC2)N1c1ccccc1`
FALSE

// param item: COc1cc(/C=C2\C(=O)N(c3ccccc3Cl)C(c3ccccc3)S2(=O)=O)cc(OC)c1OC (stereo unspecified) ; yields the recorded call
FALSE

What is the recorded call for this compound in the test? `Cc1cc(-c2nc3c(O)cccc3s2)ccc1N`
FALSE

Identify the outcome logged in this assay for the compound shown: `CC(C)=C[C@@H]1O[C@H](O)[C@@H]([C@H]2CC[C@@]3(C)[C@@H]4CC[C@H]5C(C)(C)C(=O)CC[C@@]56C[C@@]46CC[C@]23C)[C@@H]1O`
FALSE

Continuing:
Lab log entry: O=C(O)CCC(NC(=O)/C(=C/c1ccccc1)NC(=O)c1ccccc1)C(=O)O (stereo unspecified) — outcome as called in the assay?
FALSE

Assay outcome for `O=C(CCCn1ccnc1[N+](=O)[O-])NCCn1cnc([N+](=O)[O-])n1` : what was it?
FALSE

###

# Tested on: IGROV-1
# assay-method-text: NCI tumour cell line growth inhibition, 48 h
The source made the active and inactive calls. Rule as the data show it: active = GI50 up to about 1.1 µM and inactive = higher.
measured-parameter: GI50

See these solved cases before continuing.
Report value only: GI50, IGROV-1, COc1ccc(CC(O)CN2CCOCC2)cc1 (stereo unspecified)
> 100 µM (inactive)

GET GI50 | system: IGROV-1 | item: `Cc1c[nH]c(C(=O)O)c1-c1ccc2c(-c3ccccc3)nc3ccccc3n12`
22.9 µM (inactive)

Send back IGROV-1 GI50 of `Oc1ccc2ccccc2c1/N=N/c1ccsc1` only.
> 100 µM (inactive)

Write down measured GI50 (IGROV-1) for this compound. CC(C)(C)OC(=O)n1cc(C2CNC(=O)C23CCC(=O)N3Cc2ccccc2)c2ccccc21 (stereo unspecified)
17.3 µM (inactive)

Please report GI50 with IGROV-1 for item CN1CC=C(OP(=O)(NCc2ccccc2)N(CCCl)CCCl)CC1 (stereo unspecified) .
> 100 µM (inactive)

Here is another compound to look at.
Recall the reported GI50 of `NC(=O)C1=NNc2ccccc2C(=O)N1c1ccccc1` when tested on IGROV-1.
> 100 µM (inactive)
